The compounds listed here are annotated with their IC50.
- EXPERIMENTAL_SYSTEM: Bruton's Tyrosine Kinase (BTK), inactivated state (Homo sapiens (Human))
- Sequence (Q06187 whole entry): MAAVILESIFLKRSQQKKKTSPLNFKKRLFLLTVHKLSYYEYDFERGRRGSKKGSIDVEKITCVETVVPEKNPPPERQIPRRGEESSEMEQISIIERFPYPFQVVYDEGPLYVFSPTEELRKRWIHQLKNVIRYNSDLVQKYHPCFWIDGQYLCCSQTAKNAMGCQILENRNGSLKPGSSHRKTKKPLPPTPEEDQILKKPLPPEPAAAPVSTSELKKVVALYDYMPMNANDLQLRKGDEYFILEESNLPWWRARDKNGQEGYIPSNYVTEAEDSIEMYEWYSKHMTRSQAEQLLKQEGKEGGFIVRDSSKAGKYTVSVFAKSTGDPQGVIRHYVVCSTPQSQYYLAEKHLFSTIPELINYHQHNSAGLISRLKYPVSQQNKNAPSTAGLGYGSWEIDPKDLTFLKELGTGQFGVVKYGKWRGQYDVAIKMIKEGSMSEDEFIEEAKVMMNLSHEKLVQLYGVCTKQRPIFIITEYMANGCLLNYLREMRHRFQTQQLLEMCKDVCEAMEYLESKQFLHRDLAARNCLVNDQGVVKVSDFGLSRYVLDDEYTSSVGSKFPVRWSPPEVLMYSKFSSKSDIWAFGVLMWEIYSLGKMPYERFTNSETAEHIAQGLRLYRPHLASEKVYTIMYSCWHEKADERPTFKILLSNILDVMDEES
- TEST_METHOD_NOTES: Bruton's Tyrosine Kinase (BTK) Inhibition TR-FRET (Time Resolved FRET) competition assay
- PARTICULARS: TR-FRET competition with Kinase Tracer 178, BTK-Eu complex, 18-24 h at 14° C.
Your answer is read as nM, so omit the unit and give the number.

Answered examples (3):
# STRUCTURE_NOTATION, IC50 (nM)
records = [
    ("N#Cc1cccc(Oc2ccc(-n3ncc(C(=O)c4cc5cc(C(=O)N6CCOCC6)ccc5[nH]4)c3N)c(Cl)c2)c1", 6.1),
    ("Nc1c(C(=O)c2cc3cc(C(=O)N4CCOCC4)ccc3[nH]2)cnn1-c1ccc(Oc2ccccc2F)nc1", 220),
    ("Cc1cc(Oc2cccc(C#N)c2)ccc1-n1ncc(C(=O)c2cc3cc(C(=O)NCCN)ccc3[nH]2)c1N", 5),
]

**Query** Give the reported IC50 for N#Cc1cccc(Oc2ccc(-n3ncc(C(=O)c4cc5cc(C(=O)O)ccc5[nH]4)c3N)c(Cl)c2)c1F (system: Bruton's Tyrosine Kinase (BTK), inactivated state (Homo sapiens (Human))).
**Result** 3.2

**Query** Provide the documented IC50 with Bruton's Tyrosine Kinase (BTK), inactivated state (Homo sapiens (Human)) as the system for Cc1cc(Oc2cccc(C(C)(C)C)c2)ccc1-n1ncc(C(=O)c2cc3cc(C(=O)N4CCOCC4)ccc3[nH]2)c1N
**Result** 6.8

**Query** Value wanted: IC50 (Bruton's Tyrosine Kinase (BTK), inactivated state (Homo sapiens (Human))) of entry COC(=O)c1ccc2[nH]c(C(=O)c3cnn(-c4ccc(Oc5cccc(C#N)c5)cc4C)c3N)nc2c1
**Result** 150

**Query** Notebook: pull reported IC50 for Bruton's Tyrosine Kinase (BTK), inactivated state (Homo sapiens (Human)), entry Cc1cc(Oc2cccc(Br)c2)ccc1-n1ncc(C(=O)c2cc3cc(C(=O)N4CCOCC4)ccc3[nH]2)c1N
**Result** 3.5
